# system under test: human recombinant HDAC6 (Homo sapiens)
# Construct: purchased Calbiochem 382180
# Sequence (Q9UBN7 whole entry): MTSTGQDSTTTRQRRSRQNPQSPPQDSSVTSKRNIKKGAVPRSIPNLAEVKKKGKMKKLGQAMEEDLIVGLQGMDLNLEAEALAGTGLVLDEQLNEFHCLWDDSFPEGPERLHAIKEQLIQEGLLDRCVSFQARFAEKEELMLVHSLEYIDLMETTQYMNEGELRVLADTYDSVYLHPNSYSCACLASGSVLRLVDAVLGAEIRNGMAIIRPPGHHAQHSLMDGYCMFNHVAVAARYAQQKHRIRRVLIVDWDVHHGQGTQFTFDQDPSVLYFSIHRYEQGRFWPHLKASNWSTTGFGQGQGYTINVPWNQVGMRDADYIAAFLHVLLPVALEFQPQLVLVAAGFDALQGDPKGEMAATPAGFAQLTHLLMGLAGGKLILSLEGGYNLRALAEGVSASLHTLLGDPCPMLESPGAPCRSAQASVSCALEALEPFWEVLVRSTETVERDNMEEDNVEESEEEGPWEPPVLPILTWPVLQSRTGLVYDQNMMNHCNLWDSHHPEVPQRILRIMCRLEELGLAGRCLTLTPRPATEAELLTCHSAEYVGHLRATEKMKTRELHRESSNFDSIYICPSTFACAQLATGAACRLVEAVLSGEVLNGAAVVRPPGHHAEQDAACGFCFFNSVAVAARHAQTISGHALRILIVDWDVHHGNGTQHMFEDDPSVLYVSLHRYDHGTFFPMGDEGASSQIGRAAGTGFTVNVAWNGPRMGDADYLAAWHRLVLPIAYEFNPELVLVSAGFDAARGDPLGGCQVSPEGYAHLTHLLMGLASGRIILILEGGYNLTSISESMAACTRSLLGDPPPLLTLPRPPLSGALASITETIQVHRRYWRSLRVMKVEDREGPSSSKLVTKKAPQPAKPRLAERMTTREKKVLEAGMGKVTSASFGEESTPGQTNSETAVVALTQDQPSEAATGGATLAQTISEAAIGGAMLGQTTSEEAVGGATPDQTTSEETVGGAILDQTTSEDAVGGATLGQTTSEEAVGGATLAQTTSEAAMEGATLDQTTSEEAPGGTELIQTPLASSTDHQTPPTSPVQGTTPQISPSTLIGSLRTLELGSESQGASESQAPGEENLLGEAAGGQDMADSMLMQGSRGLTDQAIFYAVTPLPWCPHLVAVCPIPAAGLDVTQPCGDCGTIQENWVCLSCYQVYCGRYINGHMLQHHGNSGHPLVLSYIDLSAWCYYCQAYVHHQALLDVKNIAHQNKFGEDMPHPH
# test summary: HDAC6 enzyme activity inhibition assay (HDAC Fluorimetric Drug Discovery Kit)
# Type: biochemical
# protocol conditions: HDAC6 over HDAC1
# Experimental: In order to examine the HDAC6 selectivity of the compounds of formula I of the present invention by HDAC1 and HDAC6 enzymatic activity inhibition assays, an experiment was performed using a conventional substance as a control. HDAC enzyme activity was measured using a HDAC Fluorimetric Drug Discovery Kit (BML-AK511, 516, Enzo Life Science). […] Based on the resulting values, each IC5, value was calculated using GraphPad Prism4.0 program.
Returns one of 1.0 or 0.0; 1.0 when HDAC6 selectivity (fold) is >= 200 fold.

In: Please indicate if the recorded HDAC6 selectivity (fold) for O=C(N1CCS(=O)(=O)CC1)N(Cc1ccc(-c2nnc(C(F)(F)F)o2)cc1F)c1ccc(CN2CCN(C3COC3)CC2)cc1 [Compound 21898] meets or exceeds 200 fold.
Out: 0.0

In: Please indicate if the recorded HDAC6 selectivity (fold) for O=C(N1CCN(CCO)CC1)N(Cc1ccc(-c2nnc(C(F)F)o2)cc1F)c1ccc(F)c(Cl)c1 [Compound 21679] meets or exceeds 200 fold.
Out: 1.0

In: Please indicate if the recorded HDAC6 selectivity (fold) for C[C@@H]1CN(C(=O)N(Cc2ccc(-c3nnc(C(F)(F)F)o3)cc2)c2ccccc2)C[C@H](C)N1S(C)(=O)=O [Compound 21388] meets or exceeds 200 fold.
Out: 0.0

In: Please indicate if the recorded HDAC6 selectivity (fold) for COc1cccc(N(Cc2ccc(-c3nnc(C(F)F)o3)cc2F)C(=O)N2CCN(C3COC3)CC2)c1 [Compound 21949] meets or exceeds 200 fold.
Out: 1.0

In: Please indicate if the recorded HDAC6 selectivity (fold) for O=C(N1CCS(=O)(=O)CC1)N(Cc1ccc(-c2nnc(C(F)F)o2)cc1F)c1ccc2c(c1)CCC2 [Compound 21797] meets or exceeds 200 fold.
Out: 0.0

In: Please indicate if the recorded HDAC6 selectivity (fold) for O=C(N1CCN(C2COC2)CC1)N(Cc1ccc(-c2nnc(C(F)F)o2)cc1)c1ccc(Cl)cc1 [Compound 21945] meets or exceeds 200 fold.
Out: 0.0

In: Please indicate if the recorded HDAC6 selectivity (fold) for CN1CCN(C(=O)N(Cc2ccc(-c3nnc(C(F)F)o3)cn2)c2ccc(F)cc2)CC1 [Compound 21600] meets or exceeds 200 fold.
Out: 1.0

In: Please indicate if the recorded HDAC6 selectivity (fold) for CCN1[C@H](C)CN(Cc2ccc(N(Cc3ccc(-c4nnc(C(F)F)o4)cc3F)C(=O)N3CCS(=O)(=O)CC3)cc2)C[C@@H]1C [Compound 21935] meets or exceeds 200 fold.
Out: 0.0

In: Please indicate if the recorded HDAC6 selectivity (fold) for O=C(N1CCN(CCO)CC1)N(Cc1ccc(-c2nnc(C(F)(F)F)o2)cc1F)c1ccc(F)c(Cl)c1 [Compound 21669] meets or exceeds 200 fold.
Out: 0.0

In: Please indicate if the recorded HDAC6 selectivity (fold) for CCN1CCN(C(=O)N(Cc2ccc(-c3nnc(C(F)F)o3)cn2)c2cccc(F)c2)CC1 [Compound 21885] meets or exceeds 200 fold.
Out: 1.0

In: Please indicate if the recorded HDAC6 selectivity (fold) for C[C@@H]1CN(C(=O)N(Cc2ccc(-c3nnc(C(F)(F)F)o3)cc2)c2ccccc2)C[C@H](C)N1Cc1ccccc1 [Compound 21376] meets or exceeds 200 fold.
Out: 0.0

In: Please indicate if the recorded HDAC6 selectivity (fold) for O=C(N1CCS(=O)(=O)CC1)N(Cc1ccc(-c2nnc(C(F)(F)F)o2)cc1)c1cccc(-c2cccnc2)c1 [Compound 21436] meets or exceeds 200 fold.
Out: 0.0

In: Please indicate if the recorded HDAC6 selectivity (fold) for CCN1CCN(C(=O)N(Cc2ccc(-c3nnc(C(F)F)o3)cc2F)c2ccc(F)c(Cl)c2)CC1 [Compound 21591] meets or exceeds 200 fold.
Out: 1.0

In: Please indicate if the recorded HDAC6 selectivity (fold) for Cc1ccc(N(Cc2ccc(-c3nnc(C(F)(F)F)o3)cc2)C(=O)N2CCOCC2)c(F)c1 [Compound 21415] meets or exceeds 200 fold.
Out: 0.0

In: Please indicate if the recorded HDAC6 selectivity (fold) for O=C(N1CCS(=O)(=O)CC1)N(Cc1ccc(-c2nnc(C(F)F)o2)cc1F)c1ccc(-c2cccnc2)cc1 [Compound 21518] meets or exceeds 200 fold.
Out: 1.0
